Each entry below lists one item and its recorded OD450 nm value.
# TGT: T1, recombinant human PCSK9-His protein (Immunogen A) (human, UniProt Q8NBP7 31-692, limits assumed, biotinylated in the ELISA assays)
# T1 construct: also called hPCSK9-His; His-tagged hPCSK9; not shown: His tag
# PROTOCOL_SUMMARY: ELISA of PCSK9 binding to LDLR ECD; antibody 0.06 nM

>  <BINDER>
139G1C5, fully human anti-PCSK9 antibody (antibody, human IgG1, V domains shown) VH: QVQLQESGPGLVKPSGTLSLTCAVSGGSISRNNWWSWVRQPPGKGLEWIGEIYHSGSTNYNPSLKSRVTISVDKSKNQFSLKLSSVTAADTAVYYCARDLLGIGLDYWGQGTLVTVSS VL: EFVLTQSPATLSLSPGERAILSCRASQSFSSYIAWYQQKPGQAPRLLIYDASNRATGIPARFSGSGSGTDFTLTISSLEPEDFAVYYCQQHSNWMYTFGQGTKLEIK

>  <SCALE_UNIT>
OD450 nm

>  <OD450 nm>
2.31

$$$$
>  <BINDER>
74C10A8, fully human anti-PCSK9 antibody (antibody, human IgG1, V domains shown) VH: QVQLQESGPGLVKPSETLSLTCSVSGGSINTYYWSWIRQPPGKGLEWIGYIYYSGSTNYNPSLKSRVTISVDTSKNQFSLKLTSVTAADTAVYYCARERFTMVRGVMMDYYYYGMDVWGQGTTVTVSS VL: DIQLTQSPSFLSASVGDRVTITCRASQGISSYLAWYQQKPGKAPKLLIYAASTLQSGVPSRFSGSGSGTEFTLTISSLQPEDFATYYCQQLNSYPRTFGQGTKVEIK

>  <SCALE_UNIT>
OD450 nm

>  <OD450 nm>
2.28

$$$$
>  <BINDER>
76A1B11, fully human anti-PCSK9 antibody (antibody, human IgG1, V domains shown) VH: QVQLVESGGGVVQPGRSLRLSCAATGFTFSIYGMHWVRQAPGKGLEWVAVIWYDGSNKYYADSVKGRFIISRDNSKNTLYLQMNSLRVEDTAVYYCVSDYFGSGNSYYYYGMDVWGQGTTVTVSS VL: DIQMTQSPSSLSASVGDRVTITCRASQVISNYLAWYQQKPGKVPKLLIYTASTLQSGVPSRFSGSGSGADFTLTISSLQPEDVATYYCQKYNSAPYTFGQGTKLEIK

>  <SCALE_UNIT>
OD450 nm

>  <OD450 nm>
2.28

$$$$
>  <BINDER>
152G2F7, fully human anti-PCSK9 antibody (antibody, human IgG1, V domains shown) VH: EVQLVESGGGLVQPGGSLRLSCAASEFTFGGYWMTWVRQAPGKGLEWVANIKQDGSEKYYVDSVKGRFTISRDNAKNSLYLHMNSLRAEDTAVYYCARDRTTMIRGVSLYYYYYGMDVWGQGTAVTVSS VL: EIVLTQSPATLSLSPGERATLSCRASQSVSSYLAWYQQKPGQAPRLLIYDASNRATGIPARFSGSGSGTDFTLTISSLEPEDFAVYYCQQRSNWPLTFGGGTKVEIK

>  <SCALE_UNIT>
OD450 nm

>  <OD450 nm>
2.25

$$$$
